Assay: Comparative solubility data (Table 1)
Assay type: physicochemical
Settings: 17% HPBCD, aqueous with cosolvent or surfactant or cyclodextrin; read-out: Solubility 17% HPBCD
# reported solubility; entries follow
experimental-endpoint: solubility (µg/mL)

INSERT INTO results (molecule, unit, result_qualifier, measured_value) VALUES
  ('CC(=O)N[C@@H](CSSSCCc1ccccc1)C(=O)O', 'µg/mL', '=', 18000),
  ('OCC(O)CSSSSCc1ccccc1 (stereo not drawn)', 'µg/mL', '=', 6600),
  ('OCCSSSSCc1ccccc1', 'µg/mL', '>', 6000);

---

Experiment: Comparative solubility data (Table 1)
Type: physicochemical
Conditions: 20% PEG400, aqueous with cosolvent or surfactant or cyclodextrin; read-out: Solubility 20% PEG400
# reported solubility; entries follow
experimental-endpoint: solubility

INSERT INTO measurements (molecule, measured_value) VALUES
  ('OCC(O)CSSSSCc1ccccc1 (stereo not shown)', '230 µg/mL'),
  ('c1ccc(CCSSSCc2cccnc2)cc1', '310 µg/mL'),
  ('COC(=O)[C@H](CSSSCc1ccccc1)NC(C)=O', '240 µg/mL'),
  ('OCCSSSSCc1ccccc1', '110 µg/mL');

---

Experiment: Maximum tolerated dose, intravenous injection
Conditions: mouse, in vivo; mice, intravenous injections
experimental-endpoint: MTD

INSERT INTO assay_data (compound, measured_value) VALUES
  ('CC(=O)N[C@@H](CSSSC[C@H](NC(C)=O)C(=O)O)C(=O)O [bis-N-acetyl-cystine-trisulfide]', '~500 mg/kg');

---

Test: Comparative solubility data (Table 1)
Format: physicochemical
Conditions: water; read-out: Solubility Water
experimental-endpoint: solubility (µg/mL)

INSERT INTO results (molecule, result_qualifier, measured_value) VALUES
  ('OCC(O)CSSSSCc1ccccc1 (stereo not drawn)', '=', 150),
  ('CC(=O)N[C@@H](CSSSC[C@H](NC(C)=O)C(=O)O)C(=O)O [drawing 49]', '>', 40000),
  ('COC(=O)[C@H](CSSSCc1ccccc1)NC(C)=O', '=', 100),
  ('c1ccc(CCSSSCc2cccnc2)cc1', '=', 220),
  ('CS(=O)(=O)N[C@@H](CSSSC[C@H](NS(C)(=O)=O)C(=O)O)C(=O)O [drawing 50]', '>', 80000),
  ('OCCSSSSCc1ccccc1', '=', 37);
